target: full-length human PRMT8 isoform 1 (Homo sapiens); assay: PRMT8 biochemical assay (3H-SAM Flashplate, histone H4 31-45 peptide); conditions: 1.5 nM PRMT8, 30 min preincubation, 150 nM peptide
measurement kind: IC50 (µM)

CNCCN(C)Cc1c[nH]nc1C1CCC(CO)(CO)CC1 [compound 44] = 0.0344
CNCCN(C)Cc1c(C)noc1[C@H]1CC[C@]2(CC1)CC(C)(C)CO2 [compound 114] = 0.068
CNCCN(C)Cc1c(C)noc1[C@H]1CC[C@@]2(CC1)CC(C)(C)CO2 [compound 113] = 0.0515
CNCCN(C)Cc1c[nH]nc1C1CCC(C)(C)[C@H](COCCOC)C1 (stereo partly drawn) [compound 35] = 0.11
CCC1(CC)CC2(CCC(c3n[nH]cc3CN(C)CCNC)CC2)N(C)C1=O (stereo not drawn) [compound 22] = 0.0203
CNCCN(C)Cc1nn(C)nc1[C@H]1CC[C@@]2(CC1)CC(C)(C)CO2 [compound 64] = 0.0253

(P) CNCCN(C)Cc1c[nH]nc1C1CCC(COCC2CC2)(COCC2CC2)CC1 [compound 41]
(Q) CNCCN(C)Cc1c[nH]nc1[C@H]1CC[C@]2(CCCOC2)CC1 [compound 4]
Decide: P or Q , by lowest recorded IC50. Which one? Tell me its label.
P

(P) CNCCN(C)Cc1c[nH]nc1C1=CCC2(CC1)CC(C)(C)CO2 (stereo not drawn) [compound 46]
(Q) CNCCN(C)Cc1c(Cl)ncn1[C@H]1CC[C@]2(CC1)CC(C)(C)CO2 [compound 97]
Lab note: record which item had the higher IC50, P or Q . Provide the label of your selected option as the answer.
Q
(Q: 0.526 µM, P: 0.0246 µM)

* * *

target: PRMT1 (Homo sapiens, UniProt Q99873); construct: host or cells: RKO cells; test: RKO methylation assay, In Cell Western (ICW) for mono-methyl arginine and DNA content; type: cell-based; details: RKO cells, 72 hours, mono-methyl arginine signal normalised to DRAQ5, percent activation
Sequence (Q99873 whole entry): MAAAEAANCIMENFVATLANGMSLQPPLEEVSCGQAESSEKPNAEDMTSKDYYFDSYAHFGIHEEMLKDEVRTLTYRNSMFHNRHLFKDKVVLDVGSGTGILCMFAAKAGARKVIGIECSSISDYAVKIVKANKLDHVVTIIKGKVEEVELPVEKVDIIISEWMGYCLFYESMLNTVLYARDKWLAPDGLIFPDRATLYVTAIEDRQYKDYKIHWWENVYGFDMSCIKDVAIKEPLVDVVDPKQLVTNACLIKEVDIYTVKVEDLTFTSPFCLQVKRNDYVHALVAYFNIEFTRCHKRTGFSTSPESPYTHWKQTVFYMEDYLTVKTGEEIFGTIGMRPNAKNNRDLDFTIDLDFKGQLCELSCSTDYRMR
measurement kind: PRMT1 RGG ICW EC30 (nM)

Reference set (2 entries):
CCOC[C@@H]1CC(c2n[nH]cc2CN(C)CCNC)CCC1(C)C (stereo partly drawn) = 453.6
CCC1(CC)C[C@]2(CC[C@H](c3n[nH]cc3CN(C)CCNC)CC2)OC1=O = 40.81

(P) CNCCN(C)Cc1c[nH]nc1C1CCC(COCC2CC2)(COCC2CC2)CC1
(Q) CCOCC1(COCC)CCC(c2n[nH]cc2CN(C)CCN)CC1
Could you point out whether the larger PRMT1 RGG ICW EC30 belongs to P or to Q ? State the label of the item chosen.
P

(A) CNCCN(C)Cc1nn(C)cc1[C@H]1CC[C@@]2(CC1)CC(C)(C)CO2
(B) CCOCC1(COCC)CCC(c2nn(C)cc2CN(C)CCN)CC1
Please state the entry with greater PRMT1 RGG ICW EC30 among A and B . # answer = label of selected item
A
(A: 95.94 nM, B: 55.87 nM)

* * *

target: full-length human PRMT8 isoform 1 (Homo sapiens, UniProt Q9NR22); assay: PRMT8 biochemical assay (3H-SAM Flashplate, histone H4 31-45 peptide); details: 1.5 nM PRMT8, 30 min preincubation, 150 nM peptide
Sequence (Q9NR22 whole entry, canonical isoform): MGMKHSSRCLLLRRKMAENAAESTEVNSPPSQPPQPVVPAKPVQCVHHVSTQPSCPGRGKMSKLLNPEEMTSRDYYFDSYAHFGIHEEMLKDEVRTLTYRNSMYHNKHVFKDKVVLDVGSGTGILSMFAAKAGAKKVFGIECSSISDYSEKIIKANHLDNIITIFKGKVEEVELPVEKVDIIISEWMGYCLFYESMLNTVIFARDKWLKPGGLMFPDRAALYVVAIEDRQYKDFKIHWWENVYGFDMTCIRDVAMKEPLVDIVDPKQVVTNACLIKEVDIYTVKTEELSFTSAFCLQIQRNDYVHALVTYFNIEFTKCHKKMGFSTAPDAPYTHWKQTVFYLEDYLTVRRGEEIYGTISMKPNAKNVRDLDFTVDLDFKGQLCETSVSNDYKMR
pIC50: −log10 of the molar value.
measurement kind: pIC50

(A) Cc1[nH]nc([C@H]2CC[C@@]3(CC2)CC(C)(C)CO3)c1CN(C)CCN [compound 51]
(B) CNCCN(C)Cc1cncn1[C@H]1CC[C@]2(CC1)CC(C)(C)CO2 [compound 98]
(C) CNCCN(C)Cc1nc(C)sc1[C@H]1CC[C@@]2(CC1)CC(C)(C)CO2 [compound 77]
(D) CCC1(CC)C[C@]2(CC[C@H](c3n[nH]cc3CN(C)CCNC)CC2)OC1=O [compound 33]
Order the entries above by descending pIC50. // respond by listing labels in the order requested
A, C, D, B
(A: 7.85, C: 7.56, D: 7.02, B: 5.43)
